- measurement.target: Factor X (FX), P00742
- Sequence (P00742 whole entry, looked up): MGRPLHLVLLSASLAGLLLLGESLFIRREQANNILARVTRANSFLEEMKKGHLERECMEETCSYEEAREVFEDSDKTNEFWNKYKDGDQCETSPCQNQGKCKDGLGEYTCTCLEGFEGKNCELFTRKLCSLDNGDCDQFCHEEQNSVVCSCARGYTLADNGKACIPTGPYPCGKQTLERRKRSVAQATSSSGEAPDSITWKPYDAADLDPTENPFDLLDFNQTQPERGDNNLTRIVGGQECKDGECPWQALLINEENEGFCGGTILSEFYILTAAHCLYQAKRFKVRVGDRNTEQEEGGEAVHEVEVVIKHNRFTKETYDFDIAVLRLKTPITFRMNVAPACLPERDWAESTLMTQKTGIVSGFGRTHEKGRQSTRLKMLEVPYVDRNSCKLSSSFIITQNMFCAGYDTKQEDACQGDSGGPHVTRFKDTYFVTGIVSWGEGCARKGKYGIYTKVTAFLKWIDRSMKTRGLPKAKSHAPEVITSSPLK
# kcat/KM annotations
Answer with the value and then the unit.

The examples below pair each entry with its known result.
protein	kcat/KM
FIXa-Y155F/K247N/N249S/R318Y/R338E/R403E/E410N (protein) chain 1: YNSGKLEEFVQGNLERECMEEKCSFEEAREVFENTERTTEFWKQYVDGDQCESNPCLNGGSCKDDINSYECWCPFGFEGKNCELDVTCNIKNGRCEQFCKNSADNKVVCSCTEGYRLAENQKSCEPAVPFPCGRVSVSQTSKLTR chain 2: VVGGEDAKPGQFPWQVVLNGKVDAFCGGSIVNEKWIVTAAHCVETGVKITVVAGEHNIEETEHTEQNRSVIRIIPHHNYNAAINKYNHDIALLELDEPLVLNSYVTPICIADKEYTNIFLKFGSGYVSGWGRVFHKGYSALVLQYLRVPLVDRATCLESTKFTIYNNMFCAGFHEGGRDSCQGDSGGPHVTEVEGTSFLTGIISWGEECAMKGKYGIYTKVSEYVNWIKNKTKLT	1.9e+08 M⁻¹ s⁻¹
FIXa-Y155F/K247N/N249S/R318Y/R338E/T343R/E410N (protein) chain 1: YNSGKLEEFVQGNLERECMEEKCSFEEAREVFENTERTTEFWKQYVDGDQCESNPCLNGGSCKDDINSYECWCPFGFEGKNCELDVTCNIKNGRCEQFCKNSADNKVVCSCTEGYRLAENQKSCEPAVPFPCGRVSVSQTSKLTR chain 2: VVGGEDAKPGQFPWQVVLNGKVDAFCGGSIVNEKWIVTAAHCVETGVKITVVAGEHNIEETEHTEQNRSVIRIIPHHNYNAAINKYNHDIALLELDEPLVLNSYVTPICIADKEYTNIFLKFGSGYVSGWGRVFHKGYSALVLQYLRVPLVDRATCLESTKFRIYNNMFCAGFHEGGRDSCQGDSGGPHVTEVEGTSFLTGIISWGEECAMKGKYGIYTKVSRYVNWIKNKTKLT	5e+08 M⁻¹ s⁻¹
FIXa-R318Y/R338E/R403E/E410N/T412A (protein) chain 1: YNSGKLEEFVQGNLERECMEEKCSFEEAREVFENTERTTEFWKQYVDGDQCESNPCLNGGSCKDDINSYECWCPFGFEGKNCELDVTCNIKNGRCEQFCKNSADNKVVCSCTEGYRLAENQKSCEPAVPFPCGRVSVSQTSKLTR chain 2: VVGGEDAKPGQFPWQVVLNGKVDAFCGGSIVNEKWIVTAAHCVETGVKITVVAGEHNIEETEHTEQKRNVIRIIPHHNYNAAINKYNHDIALLELDEPLVLNSYVTPICIADKEYTNIFLKFGSGYVSGWGRVFHKGYSALVLQYLRVPLVDRATCLESTKFTIYNNMFCAGFHEGGRDSCQGDSGGPHVTEVEGTSFLTGIISWGEECAMKGKYGIYTKVSEYVNWIKNKAKLT	2.6e+08 M⁻¹ s⁻¹

Here is the next item to consider.
Supply recorded kcat/KM for FIXa-K247N/N249S/R318Y/T343R/R403E/E410N (protein) chain 1: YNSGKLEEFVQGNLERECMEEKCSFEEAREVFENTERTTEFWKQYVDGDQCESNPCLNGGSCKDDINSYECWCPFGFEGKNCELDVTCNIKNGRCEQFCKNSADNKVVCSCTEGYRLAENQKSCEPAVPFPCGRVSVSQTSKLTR chain 2: VVGGEDAKPGQFPWQVVLNGKVDAFCGGSIVNEKWIVTAAHCVETGVKITVVAGEHNIEETEHTEQNRSVIRIIPHHNYNAAINKYNHDIALLELDEPLVLNSYVTPICIADKEYTNIFLKFGSGYVSGWGRVFHKGYSALVLQYLRVPLVDRATCLRSTKFRIYNNMFCAGFHEGGRDSCQGDSGGPHVTEVEGTSFLTGIISWGEECAMKGKYGIYTKVSEYVNWIKNKTKLT here.
1.3e+08 M⁻¹ s⁻¹
